Provenance of the data: patent US20070249670A1

Molecular target: human liver glycogen phosphorylase a (HLGPa) (Homo sapiens)
Construct: creating a full-length cDNA fused at the 5′ end to codons for methionine-glycine-alanine-histidine; 6xHis tag (leader Met-Gly-Ala-His6-Gly-Gly) (N); made in house; host or cells: E. coli (bacterial expression plasmid pTXK1007LTev)
Sequence (P06737 2-847 limits assumed): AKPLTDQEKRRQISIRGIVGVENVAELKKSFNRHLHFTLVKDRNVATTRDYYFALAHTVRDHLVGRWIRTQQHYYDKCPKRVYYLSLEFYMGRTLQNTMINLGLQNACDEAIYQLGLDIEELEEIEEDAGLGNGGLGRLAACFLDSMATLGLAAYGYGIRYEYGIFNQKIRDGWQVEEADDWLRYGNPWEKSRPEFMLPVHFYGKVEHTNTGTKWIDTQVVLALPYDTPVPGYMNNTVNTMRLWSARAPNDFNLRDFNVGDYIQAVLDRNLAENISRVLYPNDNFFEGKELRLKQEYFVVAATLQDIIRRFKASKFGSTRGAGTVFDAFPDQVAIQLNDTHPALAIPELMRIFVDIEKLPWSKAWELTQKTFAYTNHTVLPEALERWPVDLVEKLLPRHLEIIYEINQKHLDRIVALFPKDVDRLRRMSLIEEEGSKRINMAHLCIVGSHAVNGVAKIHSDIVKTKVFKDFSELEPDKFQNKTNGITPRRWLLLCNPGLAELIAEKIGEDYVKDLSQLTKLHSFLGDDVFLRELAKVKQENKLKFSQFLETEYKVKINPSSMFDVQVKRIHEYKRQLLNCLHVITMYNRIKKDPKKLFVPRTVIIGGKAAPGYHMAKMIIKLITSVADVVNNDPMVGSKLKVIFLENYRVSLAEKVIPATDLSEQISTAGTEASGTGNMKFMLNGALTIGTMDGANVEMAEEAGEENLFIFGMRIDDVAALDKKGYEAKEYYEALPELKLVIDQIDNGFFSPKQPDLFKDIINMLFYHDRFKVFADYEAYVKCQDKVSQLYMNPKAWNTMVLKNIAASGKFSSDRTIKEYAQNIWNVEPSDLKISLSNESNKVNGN
Assay: Human liver glycogen phosphorylase a enzymatic activity assay (coupled, fluorescent resorufin readout, with and without 10 mM glucose)
Type: biochemical
Details: human liver glycogen phosphorylase a enzymatic activity assay

[
  {
    "Smiles Input": "N#Cc1ccc(-c2cc(NC(=O)Nc3c(Cl)cccc3Cl)c(C(=O)N[C@H](C(=O)O)C3CCCCC3)s2)cc1",
    "Unit Text": "nM",
    "IC50": 370
  },
  {
    "Smiles Input": "CC[C@H](C)[C@H](NC(=O)c1sc(-c2ccc(OC)cc2)cc1NC(=O)Nc1c(C)cc(C)cc1C)C(=O)O",
    "Unit Text": "nM",
    "IC50": 51
  },
  {
    "Smiles Input": "COc1ccc(-c2ccc(C(=O)N[C@@H](CC(=O)N(C)C)C(=O)O)c(NC(=O)Nc3c(C)cc(C)cc3C)c2)cc1",
    "Unit Text": "nM",
    "IC50": 32
  },
  {
    "Smiles Input": "O=C(Cc1c(Cl)cc(Cl)cc1Cl)Nc1cc2ccccc2cc1C(=O)N[C@H](C(=O)O)C1CCCCC1",
    "Unit Text": "nM",
    "IC50": 46
  }
]

* * *

molecular target: human liver glycogen phosphorylase a (HLGPa) (Homo sapiens, UniProt P06737); construct: creating a full-length cDNA fused at the 5′ end to codons for methionine-glycine-alanine-histidine; 6xHis tag (leader Met-Gly-Ala-His6-Gly-Gly) (N); made in house; host or cells: E. coli (bacterial expression plasmid pTXK1007LTev); assay: Human liver glycogen phosphorylase a enzymatic activity assay (coupled, fluorescent resorufin readout, with and without 10 mM glucose); assay type: biochemical; conditions: human liver glycogen phosphorylase a enzymatic activity assay
pIC50: −log10 of the molar value.
Property Name: pIC50

[
  {
    "Molecule": "Cc1ccccc1NC(=O)Nc1cc2ccccc2cc1C(=O)NC(C(=O)O)c1ccccc1 (stereo not shown) [Example 95]",
    "Measurement Target": "human liver glycogen phosphorylase a (HLGPa) (Homo sapiens, UniProt P06737)",
    "Property Name": "pIC50",
    "Reported Value": 5.00
  },
  {
    "Molecule": "CC[C@H](C)[C@H](NC(=O)c1c(NC(=O)Nc2c(C)cc(C)cc2C)sc2c1CCCC2)C(=O)O [Example 127]",
    "Measurement Target": "human liver glycogen phosphorylase a (HLGPa) (Homo sapiens, UniProt P06737)",
    "Property Name": "pIC50",
    "Reported Value": 4.74
  },
  {
    "Molecule": "COc1cc(NC(=O)Nc2c(C)cccc2Cl)c(C(=O)N[C@@H](Cc2ccccc2)C(=O)O)cc1OC [Example 73]",
    "Measurement Target": "human liver glycogen phosphorylase a (HLGPa) (Homo sapiens, UniProt P06737)",
    "Property Name": "pIC50",
    "Reported Value": 4.94
  },
  {
    "Molecule": "COc1ccc(-c2cc(C(=O)O)c(NC(=O)Nc3c(Cl)cc(OC(F)(F)F)cc3Cl)s2)cc1 [Example 426]",
    "Measurement Target": "human liver glycogen phosphorylase a (HLGPa) (Homo sapiens, UniProt P06737)",
    "Property Name": "pIC50",
    "Reported Value": 5.88
  },
  {
    "Molecule": "Cc1cc(C)c(NC(=O)Nc2sc(-c3ccc(OC(F)(F)F)cc3)cc2C(=O)O)c(C)c1 [Example 430]",
    "Measurement Target": "human liver glycogen phosphorylase a (HLGPa) (Homo sapiens, UniProt P06737)",
    "Property Name": "pIC50",
    "Reported Value": 6.13
  },
  {
    "Molecule": "Cc1cccc(C)c1NC(=O)Nc1cc(-c2ccc(F)c(F)c2)ccc1C(=O)N[C@H](C(=O)O)C1CCCCC1 [Example 188]",
    "Measurement Target": "human liver glycogen phosphorylase a (HLGPa) (Homo sapiens, UniProt P06737)",
    "Property Name": "pIC50",
    "Reported Value": 7.13
  },
  {
    "Molecule": "COc1ccc(-c2nc(NC(=O)Nc3c(Cl)cc(Cl)cc3Cl)c(C(=O)N[C@H](C(=O)O)C3CCCCC3)s2)cc1 [Example 484]",
    "Measurement Target": "human liver glycogen phosphorylase a (HLGPa) (Homo sapiens, UniProt P06737)",
    "Property Name": "pIC50",
    "Reported Value": 5.30
  }
]
